- studyTarget: T1, monkey GPC3-His protein (monkey)
- T1 construct: Bought recombinant protein; also called monkey GPC3 protein
- measurementNotes: ELISA, monkey GPC3-His coated;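 further: Plate-coated antigen at 1 µg/mL, antibody binding 2 h at 37 °C, detected with HRP-labeled secondary antibody and TMB, absorbance at 450 nm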
With a cut-off of 2 OD450, any OD450 at 10 nM strictly below it is called YES; any OD450 at 10 nM meeting it or above is called NO.

# check: OD450 at 10 nM < 2 OD450 for F2.169.2 (antibody, human IgG1, kappa, V domains shown, Human-murine chimeric antibody) VH: EVQLVETGGGLVQPKGSLKLSCAASGFSFNTNAMNWVRQAPGKGLEWVARIRSKSNNYATYYADSVKDRFTISRDDSQSMLYLQMNNLKTEDTAMYYCVRDGYYVLFAYWGQGTLVTVSA VL: DVLMTQTPLSLPVSLGDQASISCRFSQSIVNSNGNTYLEWFLQKPGQSPKLLIYKVSNRFSGVPDRFSGSGSGTDFTLKISRVEAEDLGVYYCFQGSHVPFTFGTGTKLEIKR
NO

Same thing, different binder: F4.26.1 (antibody, human IgG1, kappa, V domains shown, Human-murine chimeric antibody) VH: QVQLKQSGPGLVQPSQSLSITCTVSGFSLTSYGVHWVRQSPGKGLEWLGVIWSSGNTDYNAVLISRLSIKKDDSKSQVFFKMNSPQVDDSAIYYCGRNGGWLLRGFMDFWGQGTSVTVSS VL: DVVMTQTPLSLPVSLGDQASISCRSSQSLLHSNGNTYLHWYLQRSGQSPNLLIYKVSNRFSGVPDRFSGGGSGTDFTLKISRVEAEDLGIYFCSQSTHVPWTFGGGTKLEIKR
YES

Same thing, different binder: F1.9.19 (antibody, human IgG1, kappa, V domains shown, Human-murine chimeric antibody) VH: DVQLQESGPGLVKPSQSLSLTCSVTGYSITSGYYWNWIRQFPGNRLEWMAYISYDGINNYNPSLKNRISIARDTSTNQFFLKLNSVTSEDTATYYCATTTEVALFDHWGQGTTLTVSS VL: DVLLTQTPLSLPVSLGDQASISCRSSQNIVHGNGNTYLEWFLQKPGQSPKLLIYKVSNRFSGVPDRFSGSGSGTDFTLKISRVEAEDLGLYYCFQASHVPWTFGGGTKLEIKR
YES

Same thing, different binder: F1.3.9 (antibody, human IgG1, kappa, V domains shown, Human-murine chimeric antibody) VH: QVQLQQPGTELVKPGASVKLSCKASGYTFTSYWIHWVKQRPGQGLEWIGNINPPNAGTNYNEKFKSKATLTVDKSSSTAYMQLSSLTSEDSAVYYCARGRWLLHDYWGQGTTLTVSS VL: DIQMTQSPASLSISVGETVTITCRASENIYSNLAWYQQKQGKSPQLLVYGTKNLAEGVPSRFSGSGSGTQYSLKINSLQSEDFGNYYCQHFWGTPYTFGGGTKLEILR
YES

Source: patent US20260116991A1
